Data origin, for the record: patent US9751869B2

Kindly state pEC50 for each of the entries shown.
biological target: LXRβ (Homo sapiens, UniProt P55055); construct: Co-transfection expression plasmids, comprising full-length LXRα (pCMX-h LXRα or LXRβ (pCMX-hLXRβ)); assay: LXR/LXRE co-transfection assay (luciferase reporter) in CV-1 cells, LXRβ; settings: CV-1 cells transfected with pCMX-hLXRβ and LXREx1-Tk-Luciferase, 20 hours incubation, read-out: LXRbeta agonism EC50
Sequence (P55055 whole entry): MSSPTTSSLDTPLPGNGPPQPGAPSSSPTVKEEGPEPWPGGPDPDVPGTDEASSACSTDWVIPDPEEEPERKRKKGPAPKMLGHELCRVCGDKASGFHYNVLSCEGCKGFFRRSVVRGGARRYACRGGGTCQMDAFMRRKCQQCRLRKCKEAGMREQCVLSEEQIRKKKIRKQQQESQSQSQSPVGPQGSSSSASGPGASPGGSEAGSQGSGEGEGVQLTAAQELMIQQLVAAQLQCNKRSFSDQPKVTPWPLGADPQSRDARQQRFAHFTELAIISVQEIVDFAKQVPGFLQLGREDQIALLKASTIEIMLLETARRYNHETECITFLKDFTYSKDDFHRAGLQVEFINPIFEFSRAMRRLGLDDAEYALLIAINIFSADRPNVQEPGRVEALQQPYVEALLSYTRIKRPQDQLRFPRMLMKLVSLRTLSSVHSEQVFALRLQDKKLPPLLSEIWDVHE
Sequence (P19793 whole entry partner): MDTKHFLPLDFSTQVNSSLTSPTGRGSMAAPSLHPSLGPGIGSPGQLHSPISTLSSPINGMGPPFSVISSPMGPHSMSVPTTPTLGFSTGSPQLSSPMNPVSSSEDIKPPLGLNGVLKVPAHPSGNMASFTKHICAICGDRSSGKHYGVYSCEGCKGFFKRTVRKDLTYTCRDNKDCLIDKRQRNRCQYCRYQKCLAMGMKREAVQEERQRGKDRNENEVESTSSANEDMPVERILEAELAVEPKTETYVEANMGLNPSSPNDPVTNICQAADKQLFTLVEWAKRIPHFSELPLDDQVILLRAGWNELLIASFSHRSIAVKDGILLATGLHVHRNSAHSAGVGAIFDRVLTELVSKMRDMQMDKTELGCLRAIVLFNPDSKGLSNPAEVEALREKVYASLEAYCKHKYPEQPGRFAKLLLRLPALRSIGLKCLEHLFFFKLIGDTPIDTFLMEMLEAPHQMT
Scale: negative log10 of molar concentration, which is what pEC50 denotes.

Form: compound = Cc1nc(-c2ccc3c(c2)OC(F)(F)O3)c(-c2cc(-c3cc(F)c(CO)c(S(C)(=O)=O)c3)ccc2-c2cc(C(C)O)nn2C)o1 (stereo not drawn) [Example 103] ; pEC50 = 6.83

Reported pEC50 of Cc1nc(-c2ccc3c(c2)OC(F)(F)O3)c(-c2cc(-c3cc(F)c(CO)c(S(C)(=O)=O)c3)ccc2-c2cc(C(=O)NCC3CC3)nn2C)o1 : 6.61

Kindly note the recorded pEC50 for Cc1cc(C(F)(F)F)nn1-c1ccc(-c2cc(Cl)c(CO)c(S(C)(=O)=O)c2)cc1-n1nncc1-c1ccc(OC(F)(F)F)cc1 , which is 6.64

The recorded pEC50 for entry Cc1nc(-c2ccc3c(c2)OC(F)(F)O3)c(-c2cc(-c3cc(F)c(CO)c(S(C)(=O)=O)c3)ccc2-c2cc(C(F)(F)C(=O)NCCO)nn2C)o1 equals 6.15

Per the record, Cn1nc(C(C)(F)F)cc1-c1ccc(-c2cccc(S(C)(=O)=O)c2)cc1-n1nncc1-c1ccc(OC(F)(F)F)cc1 has pEC50 of 7.24

Value of pEC50 reported for the compound Cc1nc(-c2cc(F)c(OC(F)F)c(F)c2)c(-c2cc(-c3cc(F)c(CO)c(S(C)(=O)=O)c3)ccc2-n2cc(Cl)c(C(F)(F)F)n2)o1 is 8.40

pEC50 in this record for COc1ncc(-c2nc(C)oc2-c2cc(-c3cc(F)c(CO)c(S(C)(=O)=O)c3)ccc2-n2cc(Cl)c(C(F)(F)F)n2)cn1 : 7.03

According to the records, this compound Cc1nc(-c2cc(-c3cccc(S(C)(=O)=O)c3)ccc2-n2nc(C(F)(F)F)cc2Cl)c(-c2ccc(OC(F)(F)F)cc2)o1 displays pEC50 of 6.84

pEC50 reading for Cn1nc(C(F)(F)CO)cc1-c1ccc(-c2cccc(S(C)(=O)=O)c2)cc1-n1nncc1-c1ccc(Cl)cc1 : 5.86

// pEC50 value for Cc1nc(-c2ccc3c(c2)OC(F)(F)O3)c(-c2cc(-c3cc(F)c(CO)c(S(C)(=O)=O)c3)ccc2-c2cc(C(F)(F)C(=O)NC3CC3)nn2C)o1 : 7.07

The compound listed as Cc1nc(-c2ccc3c(c2)OC(F)(F)O3)c(-c2cc(-c3cc(F)c(CO)c(S(C)(=O)=O)c3)ccc2-c2cc(C(F)(F)c3nnc[nH]3)nn2C)o1 has a reported pEC50 of 5.60

compound Cc1nc(-c2ccc(OC(F)(F)F)cc2)c(-c2cc(-c3cccc(S(C)(=O)=O)c3)ccc2-n2ccc(CO)n2)o1 , pEC50 observed: 5.84

---

target: LXRβ (Homo sapiens); construct: Co-transfection expression plasmids, comprising full-length LXRα (pCMX-h LXRα or LXRβ (pCMX-hLXRβ)); assay: LXR/LXRE co-transfection assay (luciferase reporter) in CV-1 cells, LXRβ; conditions: CV-1 cells transfected with pCMX-hLXRβ and LXREx1-Tk-Luciferase, 20 hours incubation, read-out: LXRbeta agonism EC50
pEC50: −log10 of the molar value.
Parameter threshold = 7. Response is Condition met when pEC50 meets or exceeds it, else Condition not met.

Textbook exercise: given the entry Cc1nc(-c2ccc(OC(F)(F)F)cc2)c(-c2cc(-c3cccc(C(C)(C)C(N)=O)c3)ccc2-n2ccc(COC(N)=O)n2)o1 [Example 376] , state whether its pEC50 is greater than or equal to 7.
Condition not met

Has Cc1nc(-c2ccc(OC(F)(F)F)cc2)c(-c2cc(-c3cccc(S(C)(=O)=O)c3)ccc2-c2cc(C(F)(F)C(C)(C)O)nn2C)o1 [Example 48] a recorded pEC50 greater than or equal to 7?
Condition met

Please tell me: is the compound Cn1nc(C(=O)NCC(F)(F)F)cc1-c1ccc(-c2cccc(S(C)(=O)=O)c2)cc1-n1nncc1-c1ccc(OC(F)(F)F)cc1 [Example 39] at or over 7 in terms of pEC50?
Condition not met

In plain terms: is recorded pEC50 at least 7 for Cc1nc(-c2cc(-c3cc(F)c(CO)c(S(C)(=O)=O)c3)ccc2-n2ccc(C(F)(F)F)n2)c(-c2ccc(Cl)cc2)o1 [Example 400] ?
Condition met

Exam item: decide whether the reported pEC50 for CC(C)c1nc(-c2ccc(OC(F)(F)F)cc2)c(-c2cc(-c3cccc(S(C)(=O)=O)c3)ccc2-n2ccc(C(F)(F)F)n2)o1 [Example 340] is at least 7.
Condition not met

Does Cc1nc(-c2cc(-c3cc(F)c(CO)c(S(C)(=O)=O)c3)ccc2-c2cc(C(C)(C)CO)nn2C)c(-c2ccc3c(c2)OC(F)(F)O3)o1 [Example 62] have a reported pEC50 of at least 7?
Condition met

Determine whether this compound has pEC50 no lower than 7: Cc1nc(-c2ccc3c(c2)OC(F)(F)O3)c(-c2cc(-c3cccc(S(C)(=O)=O)c3)ccc2-n2ccc(C(C)(C)O)n2)o1 [Example 357]
Condition not met

I'd appreciate it if you could say whether Cc1nc(-c2ccc(Cl)c(OC(F)F)c2)c(-c2cc(-c3cccc(S(C)(=O)=O)c3)ccc2-n2ccc(C(F)(F)F)n2)o1 [Example 355] has pEC50 at least equal to 7.
Condition not met

Is it the case that Cc1nc(-c2cc(-c3cccc(S(C)(=O)=O)c3)ccc2-n2ccc(C(N)=O)n2)c(-c2ccc(OC(F)(F)F)cc2)o1 [Example 416] has pEC50 reaching or exceeding 7?
Condition not met
